Reported growth inhibition values follow for various compounds
protocol-notes: NCI Yeast Anticancer Drug Screen. Data for the sgs1 mgt1 strain (AID 161);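 also: 0% = growth of cultures given vehicle only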
assay-setup: S. cerevisiae sgs1 mgt1 strain, at 50.0 µM, active compounds read high
The panel holds about 79,000 compounds, 15% with a hit somewhere; the sample as a whole holds those more often.
Note: unit % is implicit; provide only the numeric part.

Use these answered entries as a reference point.
INPUT: Report growth inhibition for CC(C)(C)C(=O)OCN1CCOCC1 please.
OUTPUT: 0.65

INPUT: Report growth inhibition for Brc1ccc(-c2ccc(Br)cc2)cc1 please.
OUTPUT: 6.25

INPUT: Report growth inhibition for COc1ccc(C2Nc3cc(Cl)ccc3NC3=C2C(=O)CC(C)(C)C3)cc1 (stereo not drawn) please.
OUTPUT: 41.2

INPUT: Report growth inhibition for COC(=O)CCNc1c(OC)ccc2ccccc12 please.
OUTPUT: 11.8

INPUT: Report growth inhibition for CC(=O)Oc1ccc2c(c1)CCC1C2CCC2(C)CC(OC(C)=O)CC12 (stereo not drawn) please.
OUTPUT: -19.2

Next:
INPUT: Report growth inhibition for CCCc1ccccc1[N+](=O)[O-] please.
OUTPUT: -10.5

INPUT: Report growth inhibition for Cc1ccc2nnc(C)n2c1 please.
OUTPUT: 1.85

====

protocol-notes: NCI Yeast Anticancer Drug Screen. Data for the rad50 strain (AID 155);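 also: 0% = growth of vehicle-only cultures of the same strain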
assay-setup: S. cerevisiae rad50 strain growth inhibition; at 50.0 µM; active compounds read high
The panel holds about 79,000 compounds, 15% with a hit somewhere; the sample as a whole holds those more often.
Reported growth inhibition values follow for various molecules
Note: unit % is implicit; provide only the numeric part.

Use these answered entries as a reference point.
INPUT: Report growth inhibition for CC(C)NC1(C#N)CCN(Cc2ccccc2)CC1 please.
OUTPUT: -29.8

INPUT: Report growth inhibition for CCC(O)(Cc1ccc(OC)cc1)c1ccc(OC)cc1 (configuration not stated) please.
OUTPUT: -33.1

INPUT: Report growth inhibition for O=C1O[C@@H](c2ccccc2)C[C@@H]1CN1CCOCC1 please.
OUTPUT: 24.4

INPUT: Report growth inhibition for O=S(=O)(O)c1ccccc1O please.
OUTPUT: -0.1

INPUT: Report growth inhibition for Cn1ccc(=S)c2ccccc21 please.
OUTPUT: 18.2

INPUT: Report growth inhibition for CSc1ccc(NC(=O)Nc2ccc(Cl)cc2[N+](=O)[O-])cc1 please.
OUTPUT: -4.55

Next:
INPUT: Report growth inhibition for CSc1ccc(C(=NO)c2ccc(SC)cc2)cc1 please.
OUTPUT: -11.4

====

protocol-notes: NCI Yeast Anticancer Drug Screen. Data for the rad50 strain (AID 155);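 also: 0% = growth of vehicle-only cultures of the same strain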
assay-setup: S. cerevisiae rad50 strain growth inhibition; at 50.0 µM; active compounds read high
Method: Growth inhibition of yeast strains with defined genetic alterations is measured as a screen for potential anti-cancer activity. Selected strains with alterations in DNA damage repair or cell cycle control were exposed to compounds and growth inhibition was measured relative to vehicle treated controls. The strain used in this assay is rad50
About 79,000 compounds went through this panel and 15% of them were active in at least one assay; those are over-represented in the sample as a whole.
value-kind: growth inhibition (%)
Note: unit % is implicit; provide only the numeric part.

INPUT: Report growth inhibition for O=C1CC2C1C1C=CC2n2c(=O)n(-c3ccccc3)c(=O)n21 (stereo not given) please.
OUTPUT: -11.6

INPUT: Report growth inhibition for CCC(O)(c1ccc(O)cc1)C(O)(CC)c1ccc(O)cc1 (stereo not given) please.
OUTPUT: 1.4

INPUT: Report growth inhibition for N#CC(=C1c2ccccc2-c2ccccc21)c1ccccc1 please.
OUTPUT: -14.2

INPUT: Report growth inhibition for FC(F)(F)C(F)(F)C(F)(F)c1nc(C(F)(F)C(F)(F)C(F)(F)F)nc(C(F)(F)C(F)(F)C(F)(F)F)n1 please.
OUTPUT: 22.1

In the following, a different molecule is considered.
INPUT: Report growth inhibition for C[N+](C)(C[Si](C)(C)C)C1CCCCCCCCCCC1 please.
OUTPUT: 11.4

====

protocol-notes: NCI Yeast Anticancer Drug Screen. Data for the mlh1 rad18 strain (AID 175)
assay-setup: S. cerevisiae mlh1 rad18 strain growth inhibition; at 50.0 µM; active compounds read high
This is part of a sample that, as a whole, favours compounds with a hit. Of some 79,000 tested, about 15% had one in any assay.
Reported growth inhibition values follow for various compounds
Note: unit % is implicit; provide only the numeric part.

INPUT: Report growth inhibition for N#CC1=C(Nc2ccccc2)CCC1 please.
OUTPUT: -5.4

INPUT: Report growth inhibition for Cc1ccc2cccc(N)c2n1 please.
OUTPUT: 7.2

INPUT: Report growth inhibition for CCC1(C)OCC(CCCCO)O1 (configuration not stated) please.
OUTPUT: 14.3

INPUT: Report growth inhibition for CCCCCCCC/C=C/CCCCCCCC(=O)O please.
OUTPUT: -50.9

INPUT: Report growth inhibition for CC(C)CCCOC(=O)c1ccccc1 please.
OUTPUT: -1

Next:
INPUT: Report growth inhibition for COC(=O)CCCC1(CCCC(=O)OC)CCCCCCCCC(CCCC(=O)OC)(CCCC(=O)OC)C(=O)C1=O please.
OUTPUT: 47.6

INPUT: Report growth inhibition for CC(C)OC(=O)CO please.
OUTPUT: 13.2

====

protocol-notes: NCI Yeast Anticancer Drug Screen. Data for the cln2 rad14 strain (AID 165);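 also: 0% = growth equal to vehicle treated cultures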
assay-setup: S. cerevisiae cln2 rad14 strain, at 50.0 µM, active compounds read high
This is part of a sample that, as a whole, favours compounds with a hit. Of some 79,000 tested, about 15% had one in any assay.
value-kind: growth inhibition (%)
Note: unit % is implicit; provide only the numeric part.

INPUT: Report growth inhibition for C[C@@H](Oc1ccc(Oc2cnc3ccc(Cl)cc3n2)cc1)C(=O)O please.
OUTPUT: 37.8

INPUT: Report growth inhibition for O=C(OC1CCCC1OC(=O)c1ccccc1)c1ccccc1 (configuration not stated) please.
OUTPUT: -5.3

Next:
INPUT: Report growth inhibition for O=C(O)c1cccc(Br)c1[N+](=O)[O-] please.
OUTPUT: -36.1

INPUT: Report growth inhibition for Cc1csc(-c2ccncc2)n1 please.
OUTPUT: -8.3

INPUT: Report growth inhibition for CC1(C)SC2C(C(=O)O)N=C(Cc3ccccc3)N2C1C(=O)O (configuration not stated) please.
OUTPUT: 1.45

INPUT: Report growth inhibition for CCOC(=O)C(NC(=O)c1ccccc1)(N1CCN(c2cc3c(cc2F)c(=O)c(C(=O)O)cn3CC)CC1)C(F)(F)F (configuration not stated) please.
OUTPUT: -18.4

INPUT: Report growth inhibition for O=c1ccc2cc(Br)ccc2o1 please.
OUTPUT: -16.4

INPUT: Report growth inhibition for O=C1NC(=S)S/C1=C/c1cn(-c2ccccc2)nn1 please.
OUTPUT: -18.2

INPUT: Report growth inhibition for Cc1cc(C)c(-c2c(C)cc(C)c([N+](=O)[O-])c2C)c(C)c1N please.
OUTPUT: 96.5

INPUT: Report growth inhibition for Cc1cccc[n+]1[O-] please.
OUTPUT: -13.7

INPUT: Report growth inhibition for CC(O)(/C=C/c1ccccc1)P(=O)(O)c1ccccc1 (configuration not stated) please.
OUTPUT: -13

====

protocol-notes: NCI Yeast Anticancer Drug Screen. Data for the mec2-1 strain (AID 157)
assay-setup: S. cerevisiae mec2-1 strain, at 50.0 µM, active compounds read high
The panel holds about 79,000 compounds, 15% with a hit somewhere; the sample as a whole holds those more often.
Reported growth inhibition values follow for various compounds
Note: unit % is implicit; provide only the numeric part.

INPUT: Report growth inhibition for Cc1cc(Cc2cc(C)c(O)c(CN(C)C)c2)cc(CN(C)C)c1O please.
OUTPUT: -7.7

INPUT: Report growth inhibition for O=P(c1ccccc1)(c1ccccc1)c1ccccc1OCc1cccc(COc2ccccc2P(=O)(c2ccccc2)c2ccccc2)n1 please.
OUTPUT: -7.5

====

protocol-notes: NCI Yeast Anticancer Drug Screen. Data for the sgs1 mgt1 strain (AID 161);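 also: 0% = growth of cultures given vehicle only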
assay-setup: S. cerevisiae sgs1 mgt1 strain, at 50.0 µM, active compounds read high
Compounds without any hit were thinned out: in the full panel of roughly 79,000, 15% have a hit.
Reported growth inhibition values follow for various molecules
Note: unit % is implicit; provide only the numeric part.

Use these answered entries as a reference point.
INPUT: Report growth inhibition for O=C(Cl)C1C2C=CC(C2)C1C(=O)Cl (centres undefined) please.
OUTPUT: -2.35

INPUT: Report growth inhibition for O=C(O)CC1CCCc2ccccc2C1CC(=O)O (centres undefined) please.
OUTPUT: 10.4

INPUT: Report growth inhibition for COc1ccc(C(=O)C(c2ccc(OC)cc2)C2(O)C(=O)Nc3ccc([N+](=O)[O-])cc32)cc1 (centres undefined) please.
OUTPUT: 6.2

INPUT: Report growth inhibition for CN(C)C(=S)SCCC(=O)O please.
OUTPUT: 6.05

Next:
INPUT: Report growth inhibition for CN(C)S(=O)(=O)N1CCOCC1 please.
OUTPUT: -1.15

INPUT: Report growth inhibition for CCOC(=O)/C(F)=C/c1cccc([N+](=O)[O-])c1 please.
OUTPUT: -5.35

INPUT: Report growth inhibition for CN1C(=O)c2ccccc2Cc2c(Cl)ncnc21 please.
OUTPUT: 11.2
